TARGET OR SYSTEM: BRD9-GFP (Homo sapiens)
Construct: CHYSEL (2A cis-acting hydrolase element) remnant after GFP; mCherry is split off as a separate protein (C); expressed in transfected cells; host or cells: HEK293A cells (Invitrogen R70507), lentiviral transduction with pLenti6-BRD9-GFP-CHYSEL-mCherry, blasticidin selection
Sequence (Q9H8M2 1-597): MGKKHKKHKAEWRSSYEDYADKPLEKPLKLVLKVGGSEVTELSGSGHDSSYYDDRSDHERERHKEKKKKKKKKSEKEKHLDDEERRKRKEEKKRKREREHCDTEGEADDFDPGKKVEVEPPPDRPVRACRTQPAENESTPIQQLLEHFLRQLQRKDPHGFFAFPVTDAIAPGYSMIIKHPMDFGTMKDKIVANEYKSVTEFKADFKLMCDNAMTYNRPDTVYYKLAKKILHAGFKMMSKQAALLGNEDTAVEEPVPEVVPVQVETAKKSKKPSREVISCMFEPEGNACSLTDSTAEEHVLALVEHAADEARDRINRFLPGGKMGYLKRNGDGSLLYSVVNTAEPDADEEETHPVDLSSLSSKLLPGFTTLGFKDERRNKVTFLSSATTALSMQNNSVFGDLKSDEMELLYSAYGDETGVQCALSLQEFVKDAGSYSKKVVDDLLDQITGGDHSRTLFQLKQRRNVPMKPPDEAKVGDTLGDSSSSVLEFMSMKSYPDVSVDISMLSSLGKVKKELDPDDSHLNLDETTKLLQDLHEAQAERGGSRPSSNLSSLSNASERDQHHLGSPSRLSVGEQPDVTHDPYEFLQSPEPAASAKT
ASSAY COMMENT: BRD9-GFP protein abundance flow cytometry assay in HEK293A cells
Assay type: cell-based
PROTOCOL CONDITIONS: HEK293A-BRD9-GFP-CHYSEL-mCherry cells, 24 h at 37° C., 10-point 1:3 dilution; concentration at which 50% maximal degradation was observed
MEASURE NAME: DC50 (nM)

As a guide, the following entries are already answered.
COc1cc(-c2cn(C)c(=O)c3cnccc23)c(OC)cc1CN1CCC(OC2CCN(C(=O)COc3ccc(N4CCC(=O)NC4=O)cc3)CC2)CC1 [Compound E46]; 33
CCCCn1cc(-c2ccc(O[C@H]3CC[C@@H](OC4CCN(CCn5cccc(CN6CCC(=O)NC6=O)c5=O)CC4)CC3)cc2)c2ccncc2c1=O [Compound E35]; 6
COc1cc(-c2cn(C)c(=O)c3cnccc23)c(OC)cc1CCN1CCC(OC2CCN(C(=O)c3ccc(Cl)c(N4CCC(=O)NC4=O)c3)CC2)CC1 [Compound A39]; 21
COc1cc(-c2cc(C)c(=O)n(C)c2)ccc1C(=O)N1CCN(CC2CCN(C(=O)c3ccc(OC)c(N4CCC(=O)NC4=O)c3)CC2)CC1 [Compound A3]; 68

I: CCCCn1cc(-c2ccc(CN3CCC(OC4CCN(C(=O)c5ccc(OC)c(N6CCC(=O)NC6=O)c5)CC4)CC3)cc2)c2ccncc2c1=O [Compound E13]
II: CCCCn1cc(-c2cc(OC)c(OCC3CCN(CC4CCN(C(=O)c5ccc(OC)c(N6CCC(=O)NC6=O)c5)CC4)CC3)c(OC)c2)c2ccncc2c1=O [Compound B7]
**Q:** So which one has the bigger DC50 here, I or II ? Record your answer as the label of the chosen record.
**A:** II
